# Tested on: SK-MEL-5 melanoma
# assayOverview: NCI-60 one-dose screen, 48 h (100 = growth as untreated, 0 = no growth, -100 = all killed)
# testSettings: 10 µM unless noted
Compounds without any hit were thinned out: in the full panel of roughly 83,000, 20% have a hit.

- compound: "C#CCOc1ccc(C2=NN(CC3CC3)C3N=C(Cl)c4ncn(CC5CC5)c4N23)cc1OCC#C (stereo not drawn)"
  growth (%): 60.9
- compound: "N#C/C(C(=O)c1ccccc1)=C1/C(=O)Nc2ccc(Br)cc21"
  growth (%): 95.5
- compound: "Fc1ccc(NC(=S)c2ccccc2)cc1"
  growth (%): 101
- compound: "CCOC(CNC(=O)c1cccc([N+](=O)[O-])c1)OCC"
  growth (%): 89.2
- compound: "CC(C)C1=NOC(=O)C1=Cc1cn(-c2ccco2)nc1-c1ccccc1"
  growth (%): 95.3
- compound: "CSc1nc(N)c(N=Nc2ccc(S(=O)(=O)Nc3nnc(C)s3)cc2)c(=O)[nH]1"
  growth (%): 104
- compound: "Cc1cccc(C[C@H](NC(=O)Nc2ccc(C)cc2F)C(=O)N[C@@H]2C(=O)N3C[C@H](O)C[C@H]3C(=O)N3CCN(C)C[C@H]3C(=O)N[C@@H](C)C(=O)N3C[C@H](C)C[C@H]3C(=O)O[C@H]2C)c1"
  growth (%): 66.3
- compound: "COc1cc2c(cc1OCCCN1CCN(CCCOc3cc4c(cc3OC)C(=O)N3C[C@H](F)C[C@H]3C=N4)CC1)N=C[C@@H]1C[C@@H](F)CN1C2=O"
  growth (%): -44.7

---

# System: HOP-92 NSCLC
# assayOverview: NCI-60 one-dose screen, 48 h
# testSettings: 10 µM unless noted
The panel holds about 83,000 compounds, 20% with a hit somewhere; the sample as a whole holds those more often. Calls of active or inactive are those of the source. How the source made its calls: active means growth percent below 10; inactive means the rest.
Outcome codes: active, inactive

- molecule: "Nc1nc(Nc2ccccc2)c2ncn(Cc3ccc4c(c3)OCO4)c2n1"
  classAssignment: "inactive"
- molecule: "CC1(C(=O)O)CCC(N)(C(=O)O)C1(C)C (configuration not stated)"
  classAssignment: "inactive"
- molecule: "CCn1cc(-c2ccnc(NCCNS(=O)(=O)c3cccc4ccccc34)c2)c(-c2cccc(O)c2)n1"
  classAssignment: "inactive"
- molecule: "CC1(C)CC[C@]23CC[C@]4(C)[C@H](CC[C@@H]5[C@@]6(C)C/C(=C/c7ccncc7)C(=O)C(C)(C)[C@@H]6CC[C@]54C)[C@H]2[C@H]1OC3=O"
  classAssignment: "inactive"
- molecule: "O=C(NNc1ccc(-c2ccccc2)nn1)c1ccc(F)cc1"
  classAssignment: "inactive"
- molecule: "CCCCCCCCN(CCCCCCCC)CC(O)c1ccc(Cl)c(C)c1Cl (configuration not stated)"
  classAssignment: "inactive"
- molecule: "O=[N+]([O-])c1cc([N+](=O)[O-])c(C(F)(F)F)cc1NN=C(c1ccc(O)cc1)c1ccc(O)cc1"
  classAssignment: "inactive"
- molecule: "C#C[C@]1(O)CC[C@H]2[C@@H]3CC=C4c5nc(N)sc5CC[C@]4(C)[C@H]3CC[C@@]21C"
  classAssignment: "inactive"
- molecule: "C#CCC(C(=O)OCC)C(=O)OCC"
  classAssignment: "inactive"
- molecule: "CC1(C)CC[C@]23CC[C@]4(C)[C@H](CC[C@@H]5[C@@]6(C)C/C(=C/c7cccnc7)C(=O)C(C)(C)[C@@H]6CC[C@]54C)[C@H]2[C@H]1OC3=O"
  classAssignment: "inactive"
- molecule: "CCC(Br)(CC)C(=O)c1ccc(OCC(=O)O)c(Cl)c1Cl"
  classAssignment: "inactive"
- molecule: "O=C1C(Cl)=C(Nc2ccc3cn[nH]c3c2)C(=O)c2ccccc21"
  classAssignment: "active"
- molecule: "O=[N+]([O-])c1cc(CCl)ccc1OCCBr"
  classAssignment: "inactive"
- molecule: "C=C(C)[C@@H]1CC[C@]2(C)[C@H](CC=C3[C@@H]4[C@@H](C)[C@H](C)CC[C@]4(C(N)=O)CC[C@]32C)[C@@]1(C)CCC#N"
  classAssignment: "active"
- molecule: "O=C1CC(c2ccccc2)Cc2nc3ccc(Br)cc3cc21 (configuration not stated)"
  classAssignment: "inactive"
- molecule: "O=C(Nc1ccc(Cl)c(C(F)(F)F)c1)Nc1ccc(-c2cccnc2)cc1N1CCC(CO)CC1"
  classAssignment: "inactive"
- molecule: "COc1cc(Cl)cc(-c2nn(C(=O)NS(=O)(=O)c3ccccc3)cc2-c2ccncc2)c1"
  classAssignment: "inactive"
- molecule: "C#C[C@]1(O)CC[C@H]2[C@@H]3CC=C4c5nc(Nc6ccccc6[N+](=O)[O-])sc5CC[C@]4(C)[C@H]3CC[C@@]21C"
  classAssignment: "inactive"
- molecule: "CCOC(=O)C(c1ccccc1)N1C(=O)c2ccccc2C1=O (configuration not stated)"
  classAssignment: "inactive"
- molecule: "Nc1cc(C(=O)O)[nH]c(=S)n1"
  classAssignment: "inactive"
- molecule: "CCOC(=O)c1nn(C2CCCCO2)c2ccc(NC(=O)Cn3nnc4ccccc43)cc12 (configuration not stated)"
  classAssignment: "inactive"
- molecule: "COC(=O)c1c(C)[nH]c(/C=C2\\N=C(c3ccc[nH]3)C=C2OC)c1C"
  classAssignment: "active"
- molecule: "CC(C)(C)OC(=O)N1C=C/C(=C\\Cn2cc(-c3ccccc3)nn2)CC1"
  classAssignment: "inactive"
- molecule: "COc1ccc(-c2cc(-c3ccccc3)nc(NCCNc3ccnc4cc(Cl)ccc34)n2)cc1"
  classAssignment: "active"
- molecule: "COc1ccc2c(c1)C(C)Cc1c(Cl)ncnc1N2C (configuration not stated)"
  classAssignment: "active"
- molecule: "Cn1cc(-c2noc(-c3cn(C)c4ncccc34)n2)c2cc(Cl)ccc21"
  classAssignment: "inactive"
- molecule: "CCOc1ccc(S(=O)(=O)Nc2ccc3c(c2)N(S(=O)(=O)CC)CCC3)cc1"
  classAssignment: "inactive"
- molecule: "Nc1nc(N)c2c(n1)NC(c1ccc(F)cc1)C1CCc3ccccc3C1=N2 (configuration not stated)"
  classAssignment: "inactive"
- molecule: "NC(=O)c1cccc(-c2ccc(S(=O)(=O)Nc3ccc4c(c3)N(C(=O)C3CC3)CCC4)cc2)c1"
  classAssignment: "inactive"
- molecule: "Cc1cccc(C[C@H](NC(=O)Nc2ccc(C)cc2F)C(=O)N[C@@H]2C(=O)N3C[C@H](O)C[C@H]3C(=O)N3CCN(C)C[C@H]3C(=O)N[C@@H](C)C(=O)N3C[C@H](C)C[C@H]3C(=O)O[C@H]2C)c1"
  classAssignment: "inactive"
- molecule: "CC1(C)OC2[C@@H](CNC(=O)NC(=O)NC(=O)CI)O[C@@H](n3cnc4c(NC(=O)Nc5ccccc5)ncnc43)[C@H]2O1 (some centres not stated)"
  classAssignment: "active"
- molecule: "O=C1CC(c2ccc3c(c2)OCO3)Nc2ccccc21 (configuration not stated)"
  classAssignment: "inactive"

---

# maps each entry to its growth
# Test system: OVCAR-5 ovarian
# assayOverview: NCI-60 one-dose screen, 48 h (100 = growth as untreated, 0 = no growth, -100 = all killed)
# testSettings: 10 µM unless noted
Compounds without any hit were thinned out: in the full panel of roughly 83,000, 20% have a hit.

- compound: "O=C(Nc1cccc2cccnc12)c1cc(C(=O)c2ccc(Cl)cc2)n2ccc(-c3ccncc3)cc12"
  growth [%]: 98.9
- compound: "NS(=O)(=O)c1ccc(CCN2C(=O)/C(=C\\c3ccccc3)C=C2c2ccc(Cl)cc2)cc1"
  growth [%]: 99.4
- compound: "Cc1cccc([N+](=O)[O-])c1I"
  growth [%]: 98.9
- compound: "Nc1nc(SCc2cccc([N+](=O)[O-])c2)c2[nH]cnc2n1"
  growth [%]: 101
- compound: "O=C1CC(c2ccccc2)Cc2nc3ccc(Cl)cc3cc21 (stereo not given)"
  growth [%]: 26.4

---

# System: K-562 leukemia
# assayOverview: NCI-60 one-dose screen, 48 h
# testSettings: 10 µM unless noted
The panel holds about 83,000 compounds, 20% with a hit somewhere; the sample as a whole holds those more often. The source made the active and inactive calls. The calls were made as follows: active = growth percent below 10; inactive = the rest.
Outcomes: active, inactive

- compound: "CC(C)=CC/C=C(/C)[C@H]1CC[C@]2(C)[C@@H]1CC[C@@H]1[C@@]3(C)CCC(=O)NC(C)(C)[C@@H]3CC[C@]12C"
  classAssignment: "active"
- compound: "CC1(C)CC[C@]2(C(=O)O)CC[C@]3(C)C(=CC[C@@H]4[C@@]5(C)C/C(=C/c6ccco6)C(=O)C(C)(C)[C@@H]5CC[C@]43C)[C@@H]2C1"
  classAssignment: "inactive"
- compound: "CCCCCCCCCCCCCC[n+]1cccc(C(N)=O)c1"
  classAssignment: "active"
- compound: "CC(C)CCNCC(C)(C)O"
  classAssignment: "inactive"
- compound: "COc1ccc2nc3c(cc2c1)C(=O)CC(c1ccccc1)C3 (stereo not given)"
  classAssignment: "inactive"

Where do the numbers come from? From PubChem BioAssay (NCI).
